Numbers sourced from patent EP4755881A1.

Experiment: Pharmacokinetic study in rats (oral gavage and tail vein injection, plasma LC-MS/MS)
Format: in vivo
Conditions: rat, in vivo, SD rats, Po, 1 mg/kg
Experimental Endpoint: AUC(0-t)

                                   molecule            result
0  Cc1nc(-c2nnn(C)c2NC(=O)OC(C)CC(C)(F)F)ccc1C#CC1CC1C(=O)O (stereo not shown) [compound 291]    3 to 5 µg·h/mL
1  Cc1nc(-c2nnn(C)c2NC(=O)O[C@H](C)CC(C)(C)F)ccc1C#C[C@@H]1CC[C@H]1C(=O)O [compound 306]    3 to 5 µg·h/mL
2  Cc1nc(-c2nnn(C)c2NC(=O)O[C@H](C)CCC(C)(F)F)ccc1C#CC1(CC(=O)O)CC1 [compound 314]   5 to 10 µg·h/mL
3  Cc1nc(-c2nnn(C)c2COC(=O)N(C)CCC(C)(F)F)ccc1C#CC1CCC1C(=O)O (racemic) [compound 359]  1.2 to 3 µg·h/mL
